The entries below come with measured pIC50 values attached.
system: K562; assay: Cytotoxicity against human K562 cells assessed as reduction in cell viability after 72 hrs by CCK8 assay; type: functional, cell-based; settings: Homo sapiens, K562, 72 h; read-out: IC50
Entry type: numeric. Quantity: pIC50, the -log10 of concentration in molar units.

compound-structure-string | pIC50
C=CCn1c(=O)/c(=C\c2cccc(C)c2)[nH]c(=O)/c1=C\c1ccccc1OC | 5.06
COc1ccccc1/C=c1\c(=O)[nH]/c(=C/c2ccccc2Cl)c(=O)n1C | 6.96
COc1ccccc1/C=c1\c(=O)[nH]/c(=C/c2cccc(Cl)c2Cl)c(=O)n1C | 6.96

Shifting focus to the compound that follows.
Per the record, C=CCn1c(=O)/c(=C\c2cccc(F)c2)[nH]c(=O)/c1=C\c1ccccc1OC has pIC50 of 5.39

* * *

tested on: MCF7; assay: Cytotoxicity against human MCF7 cells assessed as reduction in cell viability after 72 hrs by CCK8 assay; format: functional, cell-based; conditions: Homo sapiens, MCF7, 72 h; read-out: IC50
readout-kind: IC50 (nM)
Please reply with the bare figure in nM and do not write the unit itself.

# example entries with known answers
molecule | result
CC(/C=C/C(=O)NO)=C\[C@@H](C)C(=O)c1ccc(N(C)C)cc1 [TRICHOSTATIN] | 60
C=CCn1c(=O)/c(=C\c2cccc(Cl)c2Cl)[nH]c(=O)/c1=C\c1ccccc1OC | 2100

Per the record, COc1ccccc1/C=c1/[nH]c(=O)/c(=C\c2ccccc2OC)n(C)c1=O has IC50 of 9000

* * *

tested on: A549; assay: Cytotoxicity against human A549 cells assessed as reduction in cell viability after 72 hrs by CCK8 assay; format: functional, cell-based; details: Homo sapiens, A549, 72 h; read-out: IC50
Sorting guide: entries reporting IC50 beneath 2 µM go in the 1 pile, the rest go in the -1 pile.

Reference set, count: 6
compound | measured-on | group-label
C=CCn1c(=O)/c(=C\c2ccccc2OC)[nH]c(=O)/c1=C\c1ccccc1OC | A549 | -1
CC(/C=C/C(=O)NO)=C\[C@@H](C)C(=O)c1ccc(N(C)C)cc1 [TRICHOSTATIN] | A549 | 1
C=CCn1c(=O)/c(=C\c2cccc(C)c2)[nH]c(=O)/c1=C\c1ccccc1OC | A549 | -1
C=CCn1c(=O)/c(=C\c2cccc(Br)c2)[nH]c(=O)/c1=C\c1ccccc1OC | A549 | -1
C=CCn1c(=O)/c(=C\c2cccc(Cl)c2Cl)[nH]c(=O)/c1=C\c1ccccc1OC | A549 | -1
C=CCn1c(=O)/c(=C\c2cccc(Cl)c2)[nH]c(=O)/c1=C\c1ccccc1OC | A549 | -1

Enquiry: Input C=CCn1c(=O)/c(=C\c2ccccc2C(F)(F)F)[nH]c(=O)/c1=C\c1ccccc1OC ; condition: IC50 strictly below 2 µM. Does it hold?
Return: -1

Enquiry: Input C=CCn1c(=O)/c(=C\c2cccc(F)c2)[nH]c(=O)/c1=C\c1ccccc1OC ; condition: IC50 strictly below 2 µM. Does it hold?
Return: -1

Enquiry: Input COc1ccccc1/C=c1/[nH]c(=O)/c(=C\c2ccccc2OC)n(C)c1=O ; condition: IC50 strictly below 2 µM. Does it hold?
Return: -1

Enquiry: Input COc1ccccc1/C=c1\c(=O)[nH]/c(=C/c2ccccc2Cl)c(=O)n1C ; condition: IC50 strictly below 2 µM. Does it hold?
Return: 1

Enquiry: Input CC(C)(C)c1[nH]cnc1/C=c1\[nH]c(=O)/c(=C/c2ccccc2)[nH]c1=O [PLINABULIN] ; condition: IC50 strictly below 2 µM. Does it hold?
Return: 1
